A collection of compounds and their measured metabolised at 1 h, 200 µM
Biological target: angiotensin converting enzyme (ACE) (Oryctolagus cuniculus)
Construct: In Vitro Biochemical Stability Assays Against Purified Native Enzymes; purchased Sigma, St. Louis, Mo; host or cells: rabbit lung
Sequence (P12822 34-1310): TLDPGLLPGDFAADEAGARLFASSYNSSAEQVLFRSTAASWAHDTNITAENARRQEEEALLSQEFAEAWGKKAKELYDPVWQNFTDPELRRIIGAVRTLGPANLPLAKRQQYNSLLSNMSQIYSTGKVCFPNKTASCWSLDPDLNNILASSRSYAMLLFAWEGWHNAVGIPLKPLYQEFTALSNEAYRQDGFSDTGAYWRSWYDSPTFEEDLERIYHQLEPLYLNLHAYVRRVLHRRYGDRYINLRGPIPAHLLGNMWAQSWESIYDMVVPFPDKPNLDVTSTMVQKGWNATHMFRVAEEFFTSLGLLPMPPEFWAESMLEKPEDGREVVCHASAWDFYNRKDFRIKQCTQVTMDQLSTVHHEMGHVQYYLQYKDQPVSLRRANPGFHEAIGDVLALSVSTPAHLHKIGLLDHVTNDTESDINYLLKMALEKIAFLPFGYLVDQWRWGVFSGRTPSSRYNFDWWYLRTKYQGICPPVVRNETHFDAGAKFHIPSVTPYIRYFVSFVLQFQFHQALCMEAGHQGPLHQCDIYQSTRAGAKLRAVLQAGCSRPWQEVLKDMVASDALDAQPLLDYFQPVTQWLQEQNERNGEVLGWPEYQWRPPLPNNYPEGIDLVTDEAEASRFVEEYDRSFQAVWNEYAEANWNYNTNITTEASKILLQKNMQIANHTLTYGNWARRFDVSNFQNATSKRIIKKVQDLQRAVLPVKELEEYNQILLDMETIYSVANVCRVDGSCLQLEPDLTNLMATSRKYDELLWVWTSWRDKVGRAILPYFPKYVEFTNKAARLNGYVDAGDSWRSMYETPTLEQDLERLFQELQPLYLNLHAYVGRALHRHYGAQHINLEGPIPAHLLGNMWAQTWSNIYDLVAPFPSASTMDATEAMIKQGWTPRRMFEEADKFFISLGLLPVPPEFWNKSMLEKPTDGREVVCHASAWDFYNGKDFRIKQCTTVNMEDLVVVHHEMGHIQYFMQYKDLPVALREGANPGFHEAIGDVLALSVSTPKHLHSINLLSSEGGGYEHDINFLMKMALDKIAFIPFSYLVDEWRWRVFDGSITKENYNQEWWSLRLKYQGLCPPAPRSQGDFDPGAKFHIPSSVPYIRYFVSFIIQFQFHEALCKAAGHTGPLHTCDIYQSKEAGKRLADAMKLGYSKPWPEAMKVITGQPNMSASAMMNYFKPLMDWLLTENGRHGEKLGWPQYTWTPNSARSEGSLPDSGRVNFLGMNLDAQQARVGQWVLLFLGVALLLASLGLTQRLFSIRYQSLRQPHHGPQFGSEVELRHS
Assay: In vitro metabolic stability against purified rabbit lung ACE
Format: in vitro ADME
Conditions: purified angiotensin converting enzyme from rabbit lung, pH 7.5, peptide 200 μM, 60 min at 37° C., mean ± SEM of 3, read-out: Peptide metabolism (%) Rabbit lung ACE
Square brackets hold non-standard residues; d marks the D form. Peptide text beside a SMILES is read from it. Oic = O=C(O)[C@@H]1C[C@@H]2CCCC[C@@H]2N1; d2Nal = N[C@H](Cc1ccc2ccccc2c1)C(=O)O; αMeF = C[C@](N)(Cc1ccccc1)C(=O)O; Orn = NCCC[C@H](N)C(=O)O

>>> recorded_measurement("CC[C@H](C)[C@H](NC(=O)[C@@H](Cc1ccc2ccccc2c1)NC(=O)[C@H](CO)NC(=O)[C@](C)(Cc1ccccc1)NC(=O)CNC(=O)[C@@H]1CCCN1C(=O)[C@@H]1C[C@@H]2CCCC[C@@H]2N1C(=O)[C@H](CCCNC(=N)N)NC(=O)[C@H](CCCN)NC(C)=O)C(=O)O [compound c] (Ac-[Orn]R[Oic]PG[αMeF]S[d2Nal]I-OH)")
"0%"
>>> recorded_measurement("CC[C@H](C)[C@H](NC(=O)[C@@H](Cc1ccc2ccccc2c1)NC(=O)[C@H](CO)NC(=O)[C@](C)(Cc1ccccc1)NC(=O)CNC(=O)[C@@H]1CCCN1C(=O)[C@@H]1C[C@@H]2CCCC[C@@H]2N1C(=O)[C@H](CCCNC(=N)N)NC(=O)[C@H](CCCCN)NC(C)=O)C(=O)O (Ac-KR[Oic]PG[αMeF]S[d2Nal]I-OH)")
"0%"

With those in mind, consider the next compound.
For CC(C)C[C@H](NC(=O)[C@@H]1CCCN1C(=O)[C@H](CO)NC(=O)[C@H](Cc1ccccc1)NC(=O)CNC(=O)[C@@H]1CCCN1C(=O)[C@@H]1CCCN1C(=O)[C@H](CCCN=C(N)N)NC(=O)[C@@H](N)CCCCN)C(=O)O [Lys-[Leu^8]desArg^9-BK, Lys-[Leu^8] desArg^9BK, reference compound] the compound record lists metabolised at 1 h, 200 µM as 93%
